# Species: Rattus norvegicus
# measurement.description: Open TG-GATES - Regimen: Single
# Type: toxicity, organism-based, Sprague-Dawley
# Parameters: regimen Single, gender Male, age 6 weeks
# study.conditions: in vivo, po, 10 mg/kg, 9 h, tissue Blood, route gavage, dose level Low
measurement.name: Lym (%)
Record the value in %, omitting the unit from your answer.

Example entries and their recorded answers appear below.
1. CC1=C(/C=C/C(C)=C/C=C/C(C)=C/CO)C(C)(C)CCC1 :: 78
2. CN(C)CCCN1c2ccccc2CCc2ccc(Cl)cc21 :: 78.8
3. CN(C)CCN(Cc1cccs1)c1ccccn1 :: 77.4

Exercise: # query: Lym of entry CN(C)CCCN1c2ccccc2CCc2ccccc21
Solution: 75.6
